Target: Human Polymorphonuclear Leukocyte Elastase (Homo sapiens)
Construct: Crude extract of human polymorphonuclear leukocytes (PMN) containing elastase activity; from tissue; host or cells: human polymorphonuclear leukocytes (crude extract)
Sequence (P08246 30-267): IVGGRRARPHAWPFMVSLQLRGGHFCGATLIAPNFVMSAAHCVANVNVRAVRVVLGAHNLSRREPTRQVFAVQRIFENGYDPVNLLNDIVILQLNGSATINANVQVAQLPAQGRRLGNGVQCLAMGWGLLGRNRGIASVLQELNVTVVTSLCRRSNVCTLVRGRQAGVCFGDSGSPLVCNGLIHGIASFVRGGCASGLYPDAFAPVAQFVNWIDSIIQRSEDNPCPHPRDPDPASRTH
Assay: Enzyme assay for inhibition of human polymorphonuclear leukocyte elastase via hydrolysis of Boc-AAPAN or Boc-AAPVN
Assay type: biochemical
Details: pH 7.5, second order rate constant for inactivation of the enzyme, expressed to the nearest thousand, read-out: Kobs/[I]
quantity-kind: kinact/KI (M⁻¹ s⁻¹)

molecule	observed-measurement
CCC[C@@H](NC(=O)N1C(=O)C(CC)(CC)[C@@H]1Oc1ccc(C(=O)NCCN2CCC(O)CC2)cc1)c1ccc(C)cc1	1.73e+06
CCC[C@@H](NC(=O)N1C(=O)C(CC)(CC)[C@@H]1Oc1ccc(C(=O)N2CCN(C3CC3)CC2)cc1)c1ccc(C)cc1 (relative stereo)	3.59e+06
CCC[C@@H](NC(=O)N1C(=O)C(CC)(CC)[C@@H]1Oc1ccc(C(=O)N(C)CCN(C)C)cc1)c1cccc(OC)c1	1.75e+06
CCC[C@@H](NC(=O)N1C(=O)C(CC)(CC)[C@@H]1Oc1ccc(C(=O)N(C)CCO)cc1)c1ccc(C)cc1	1.46e+06
CCC[C@@H](NC(=O)N1C(=O)C(CC)(CC)[C@@H]1Oc1ccc(C(=O)N(C)CCCC(=O)O)cc1)c1ccc(C)cc1	1.06e+06
CCC[C@@H](NC(=O)N1C(=O)C(CC)(CC)[C@@H]1Oc1ccc(C(=O)N(C)CC(C)N(C)Cc2ccccc2)cc1)c1ccc(C)cc1 (stereo partly shown)	2.12e+06
CCC[C@@H](NC(=O)N1C(=O)C(CC)(CC)[C@@H]1Oc1ccc(C(=O)NCCN2CCCCC2)cc1)c1ccc(C)cc1	941000
CCC[C@@H](NC(=O)N1C(=O)C(CC)(CC)[C@@H]1Oc1ccc(C(=O)O[C@@H](C)C(=O)O)cc1)c1ccc(C)cc1	1.13e+06
CCC[C@@H](NC(=O)N1C(=O)C(CC)(CC)[C@@H]1Oc1ccc(C(=O)N(C)CCN(C)C)cc1)c1ccc(CO)cc1	854000
CCC[C@@H](NC(=O)N1C(=O)C(CC)(CC)[C@@H]1Oc1ccc(C(=O)N(C)CCN(C)Cc2ccc(C#N)cc2)cc1)c1ccc(C)cc1	2.2e+06
CCC[C@@H](NC(=O)N1C(=O)C(CC)(CC)[C@@H]1Oc1ccc(C(=O)N(C)CCN2CCCCC2)cc1)c1ccc(C)cc1	892000
CCC[C@@H](NC(=O)N1C(=O)C(CC)(CC)[C@@H]1Oc1ccc(C(=O)N(C)CCN2CCC(OCc3ccccc3)CC2)cc1)c1ccc(C)cc1	3.48e+06
CCC[C@@H](NC(=O)N1C(=O)C(CC)(CC)[C@@H]1Oc1ccc(C(=O)N(C)CCN(C)C)cc1)c1ccc(CC)c(C(=O)N2CCOCC2)c1	2.42e+06
